target_system: HLA-A*02:01
procedure_summary: IEDB peptide-MHC binding, purified MHC/direct/fluorescence; filed as Kd, often an IC50 or EC50 that approximates it; bounds were set here for any values at or beyond the usual limits of such assays
study_conditions: source organism: Marburg virus - Musoke, Kenya, 1980
measurement_type: Kd (nM)

[[record]]
entry_sequence = "KLDFIRNTK"
qualifier_symbol = "≥"
value_observed = 20000

[[record]]
entry_sequence = "MLAKYDHLV"
qualifier_symbol = "="
value_observed = 27


----------
target_system: HLA-B*27:03
procedure_summary: IEDB peptide-MHC binding, purified MHC/competitive/fluorescence; filed as Kd, often an IC50 or EC50 that approximates it; bounds were set here for any values at or beyond the usual limits of such assays
study_conditions: source organism: Cryptosporidium parvum Iowa II
pKd: −log10 of the molar value.
measurement_type: pKd

[[record]]
entry_sequence = "FTWQHNYYL"
value_observed = "≤ 4.70"


----------
target_system: HLA-B*44:02
procedure_summary: IEDB peptide-MHC binding, purified MHC/direct/fluorescence; filed as Kd, often an IC50 or EC50 that approximates it; bounds were set here for any values at or beyond the usual limits of such assays
study_conditions: source organism: Vibrio parahaemolyticus
pKd: −log10 of the molar value.
measurement_type: pKd

[[record]]
entry_sequence = "YREAGIPVL"
target_system = "HLA-B*44:02"
value_observed = "≤ 4.70"


----------
target_system: HLA-A*02:01
procedure_summary: IEDB peptide-MHC binding, purified MHC/competitive/fluorescence; filed as Kd, often an IC50 or EC50 that approximates it; bounds were set here for any values at or beyond the usual limits of such assays
study_conditions: source organism: Vibrio vulnificus CMCP6
pKd: −log10 of the molar value.
measurement_type: pKd

[[record]]
entry_sequence = "LEMNDAPTA"
value_observed = "≤ 4.70"


----------
target_system: HLA-A*30:02
procedure_summary: IEDB peptide-MHC binding, purified MHC/competitive/radioactivity; filed as Kd, often an IC50 or EC50 that approximates it; bounds were set here for any values at or beyond the usual limits of such assays
study_conditions: source organism: Lassa virus GA391
pKd: −log10 of the molar value.
measurement_type: pKd

[[record]]
entry_sequence = "KDFKCFNLI"
measurement_type = "pKd"
value_observed = "≤ 4.47"


----------
target_system: HLA-A*26:02
procedure_summary: IEDB peptide-MHC binding, purified MHC/competitive/fluorescence; filed as Kd, often an IC50 or EC50 that approximates it; bounds were set here for any values at or beyond the usual limits of such assays
study_conditions: source organism: Vaccinia virus WR
Collected Kd values appear next to each entry.
measurement_type: Kd

[[record]]
entry_sequence = "KVFDKSLLY"
measurement_type = "Kd"
value_observed = "1990 nM"

[[record]]
entry_sequence = "YQYIFLSFF"
measurement_type = "Kd"
value_observed = "≥ 20000 nM"


----------
target_system: HLA-B*57:01
procedure_summary: IEDB peptide-MHC binding, purified MHC/direct/fluorescence; filed as Kd, often an IC50 or EC50 that approximates it; bounds were set here for any values at or beyond the usual limits of such assays
study_conditions: source organism: Mycobacterium tuberculosis
measurement_type: Kd

[[record]]
entry_sequence = "VPRENATAF"
value_observed = "≥ 20 µM"


----------
target_system: HLA-B*58:01
procedure_summary: IEDB peptide-MHC binding, purified MHC/direct/fluorescence; filed as Kd, often an IC50 or EC50 that approximates it; bounds were set here for any values at or beyond the usual limits of such assays
study_conditions: source organism: Vibrio vulnificus
pKd: −log10 of the molar value.
measurement_type: pKd

[[record]]
entry_sequence = "EEVWRDPYL"
value_observed = "≤ 4.70"

[[record]]
entry_sequence = "QSDIAGAIH"
value_observed = "≤ 4.70"

